target system: T1, TROP2 (UniProt P09758 27-323, limits assumed)
T1 sequence (looked up): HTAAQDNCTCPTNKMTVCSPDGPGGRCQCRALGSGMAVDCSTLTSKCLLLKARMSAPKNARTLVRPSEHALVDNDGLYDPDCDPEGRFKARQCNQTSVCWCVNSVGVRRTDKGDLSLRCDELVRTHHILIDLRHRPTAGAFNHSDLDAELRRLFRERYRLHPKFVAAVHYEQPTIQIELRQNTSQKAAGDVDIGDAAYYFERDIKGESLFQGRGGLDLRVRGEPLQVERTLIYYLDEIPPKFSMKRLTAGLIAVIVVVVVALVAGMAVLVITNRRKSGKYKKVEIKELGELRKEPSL
procedure summary: cell-based or functional assay
metric name: TROP2+ 293T EC50 (nM)
State the answer as a number, implicitly in nM.

State the recorded TROP2+ 293T EC50 for this entry: anti-TROP2 mAb5 (Sacituzumab, heavy chain S375C, light chain V110C) conjugated with Compound 3.18 (antibody, human IgG1, V domains shown, Compound 3.18 on engineered C110 (EU numbering); Compound 3.18 on engineered C375 (EU numbering); DAR 3.6 for the whole antibody) VH: QVQLQQSGSELKKPGASVKVSCKASGYTFTNYGMNWVKQAPGQGLKWMGWINTYTGEPTYTDDFKGRFAFSLDTSVSTAYLQISSLKADDTAVYFCARGGFGSSYWYFDVWGQGSLVTVSS VL: DIQLTQSPSSLSASVGDRVSITCKASQDVSIAVAWYQQKPGKAPKLLIYSASYRYTGVPDRFSGSGSGTDFTLTISSLQPEDFAVYYCQQHYITPLTFGAGTKVEIKR
2
